Test system: Staphylococcus aureus
assay-remarks: In vitro antibacterial activity against Staphylococcus aureus 01A0758
Type: functional
Listed here are compounds together with their documented MIC.
endpoint-name: MIC (µg/mL)

compound="CC[C@H]1OC(=O)[C@H](C)[C@H]2OC3(CCN(c4cc(OC)nc(OC)n4)CC3)O[C@](C)(C[C@@H](C)CN[C@H](C)[C@@H](O)[C@]1(C)O)[C@H](O[C@@H]1O[C@H](C)CC(N(C)C)[C@H]1O)[C@H]2C (some centres undefined)" endpoint_name=MIC endpoint_result=1.56
compound="CC[C@H]1OC(=O)[C@H](C)[C@H]2OC3(CCN(c4ccc(C(=O)OCc5ccccc5)cc4)CC3)O[C@](C)(C[C@@H](C)CN(C)[C@H](C)[C@@H](O)[C@]1(C)O)[C@H](O[C@@H]1O[C@H](C)CC(N(C)C)[C@H]1O)[C@H]2C (some centres undefined)" endpoint_name=MIC endpoint_result=3.13
compound="CC[C@H]1OC(=O)[C@H](C)[C@H]2OC3(CCN(c4ccc(C(=O)OCc5ccccc5)c(C(F)(F)F)c4)CC3)O[C@](C)(C[C@@H](C)CN[C@H](C)[C@@H](O)[C@]1(C)O)[C@H](O[C@@H]1O[C@H](C)CC(N(C)C)[C@H]1O)[C@H]2C (some centres undefined)" endpoint_name=MIC endpoint_result=0.78
compound="CC[C@H]1OC(=O)[C@H](C)[C@H]2OC3(CCN(c4ncc(C(=O)OCc5ccccc5)c(C(F)(F)F)n4)CC3)O[C@](C)(C[C@@H](C)CN[C@H](C)[C@@H](O)[C@]1(C)O)[C@H](O[C@@H]1O[C@H](C)CC(N(C)C)[C@H]1O)[C@H]2C (some centres undefined)" endpoint_name=MIC endpoint_result=0.78

====

System: Staphylococcus aureus
assay-remarks: In vitro antibacterial activity against Staphylococcus aureus 01A0758
Format: functional
Here the recorded MIC is given for each entry.
endpoint-name: MIC (µg/mL)

compound="CC[C@H]1OC(=O)[C@H](C)[C@H]2OC3(CCN(c4nccc(C(F)(F)F)n4)CC3)O[C@](C)(C[C@@H](C)CN[C@H](C)[C@@H](O)[C@]1(C)O)[C@H](O[C@@H]1O[C@H](C)CC(N(C)C)[C@H]1O)[C@H]2C (some centres not stated)" target_under_test="Staphylococcus aureus" endpoint_name=MIC readout_unit=µg/mL endpoint_result=1.56
compound="CC[C@H]1OC(=O)[C@H](C)[C@H]2OC3(CCN(c4cc(OC)nc(OC)n4)CC3)O[C@](C)(C[C@@H](C)CN(C)[C@H](C)[C@@H](O)[C@]1(C)O)[C@H](O[C@@H]1O[C@H](C)CC(N(C)C)[C@H]1O)[C@H]2C (some centres not stated)" target_under_test="Staphylococcus aureus" endpoint_name=MIC readout_unit=µg/mL endpoint_result=1.56

====

System: Staphylococcus aureus
assay-remarks: In vitro antibacterial activity against Staphylococcus aureus 01A0758
Type: functional
endpoint-name: log10 MIC (log10 of the value in µg/mL)

compound="CC[C@H]1OC(=O)[C@H](C)[C@H]2OC3(CCN(c4ncc(C(=O)NCc5ccncc5)cn4)CC3)O[C@](C)(C[C@@H](C)CN(C)[C@H](C)[C@@H](O)[C@]1(C)O)[C@H](O[C@@H]1O[C@H](C)CC(N(C)C)[C@H]1O)[C@H]2C (stereo partly specified)" endpoint_result=0.55
compound="CC[C@H]1OC(=O)[C@H](C)[C@H]2OC3(CCN(c4ccc(C(=O)OCc5ccccc5)cc4F)CC3)O[C@](C)(C[C@@H](C)CN[C@H](C)[C@@H](O)[C@]1(C)O)[C@H](O[C@@H]1O[C@H](C)CC(N(C)C)[C@H]1O)[C@H]2C (stereo partly specified)" endpoint_result=-0.41
compound="CC[C@H]1OC(=O)[C@H](C)[C@H]2OC3(CCN(c4cncc(Cl)n4)CC3)O[C@](C)(C[C@@H](C)CN(C)[C@H](C)[C@@H](O)[C@]1(C)O)[C@H](O[C@@H]1O[C@H](C)CC(N(C)C)[C@H]1O)[C@H]2C (stereo partly specified)" endpoint_result=0.19
compound="CC[C@H]1OC(=O)[C@H](C)[C@H]2OC3(CCN(c4ccc(C(N)=O)cn4)CC3)O[C@](C)(C[C@@H](C)CN[C@H](C)[C@@H](O)[C@]1(C)O)[C@H](O[C@@H]1O[C@H](C)CC(N(C)C)[C@H]1O)[C@H]2C (stereo partly specified)" endpoint_result=0.19
compound="CC[C@H]1OC(=O)[C@H](C)[C@H]2OC3(CCN(c4ccc(C)nn4)CC3)O[C@](C)(C[C@@H](C)CN(C)[C@H](C)[C@@H](O)[C@]1(C)O)[C@H](O[C@@H]1O[C@H](C)CC(N(C)C)[C@H]1O)[C@H]2C (stereo partly specified)" endpoint_result=0.80
compound="CC[C@H]1OC(=O)[C@H](C)[C@H]2OC3(CCN(c4ncccn4)CC3)O[C@](C)(C[C@@H](C)CN(C)[C@H](C)[C@@H](O)[C@]1(C)O)[C@H](O[C@@H]1O[C@H](C)CC(N(C)C)[C@H]1O)[C@H]2C (stereo partly specified)" endpoint_result=0.19
compound="CC[C@H]1OC(=O)[C@H](C)[C@H]2OC3(CCN(c4nc(Cl)nc(-c5ccccc5)n4)CC3)O[C@](C)(C[C@@H](C)CN(C)[C@H](C)[C@@H](O)[C@]1(C)O)[C@H](O[C@@H]1O[C@H](C)CC(N(C)C)[C@H]1O)[C@H]2C (stereo partly specified)" endpoint_result=0.19
compound="CC[C@H]1OC(=O)[C@H](C)[C@H]2OC3(CCN(c4ccccc4[N+](=O)[O-])CC3)O[C@](C)(C[C@@H](C)CN(C)[C@H](C)[C@@H](O)[C@]1(C)O)[C@H](O[C@@H]1O[C@H](C)CC(N(C)C)[C@H]1O)[C@H]2C (stereo partly specified)" endpoint_result=0.19
compound="CC[C@H]1OC(=O)[C@H](C)[C@H]2OC3(CCN(c4ccc([N+](=O)[O-])cn4)CC3)O[C@](C)(C[C@@H](C)CN[C@H](C)[C@@H](O)[C@]1(C)O)[C@H](O[C@@H]1O[C@H](C)CC(N(C)C)[C@H]1O)[C@H]2C (stereo partly specified)" endpoint_result=0.19
compound="CC[C@H]1OC(=O)[C@H](C)[C@H]2OC3(CCN(c4cc(C)c([N+](=O)[O-])cn4)CC3)O[C@](C)(C[C@@H](C)CN[C@H](C)[C@@H](O)[C@]1(C)O)[C@H](O[C@@H]1O[C@H](C)CC(N(C)C)[C@H]1O)[C@H]2C (stereo partly specified)" endpoint_result=-0.11
compound="CC[C@H]1OC(=O)[C@H](C)[C@H]2OC3(CCN(c4ccc([N+](=O)[O-])cn4)CC3)O[C@](C)(C[C@@H](C)CN(C)[C@H](C)[C@@H](O)[C@]1(C)O)[C@H](O[C@@H]1O[C@H](C)CC(N(C)C)[C@H]1O)[C@H]2C (stereo partly specified)" endpoint_result=0.50
compound="CC[C@H]1OC(=O)[C@H](C)[C@H]2OC3(CCN(c4ncc(C(=O)OCc5ccccc5)c(C(F)(F)F)n4)CC3)O[C@](C)(C[C@@H](C)CN(C)[C@H](C)[C@@H](O)[C@]1(C)O)[C@H](O[C@@H]1O[C@H](C)CC(N(C)C)[C@H]1O)[C@H]2C (stereo partly specified)" endpoint_result=0.07
compound="CC[C@H]1OC(=O)[C@H](C)[C@H]2OC3(CCN(c4ccc(C(F)(F)F)cn4)CC3)O[C@](C)(C[C@@H](C)CN[C@H](C)[C@@H](O)[C@]1(C)O)[C@H](O[C@@H]1O[C@H](C)CC(N(C)C)[C@H]1O)[C@H]2C (stereo partly specified)" endpoint_result=0.19
compound="CC[C@H]1OC(=O)[C@H](C)[C@H]2OC3(CCN(c4cc(CO)cc(Cl)n4)CC3)O[C@](C)(C[C@@H](C)CN[C@H](C)[C@@H](O)[C@]1(C)O)[C@H](O[C@@H]1O[C@H](C)CC(N(C)C)[C@H]1O)[C@H]2C (stereo partly specified)" endpoint_result=0.19
compound="CC[C@H]1OC(=O)[C@H](C)[C@H]2OC3(CCN(c4nc5ccccc5[nH]4)CC3)O[C@](C)(C[C@@H](C)CN(C)[C@H](C)[C@@H](O)[C@]1(C)O)[C@H](O[C@@H]1O[C@H](C)CC(N(C)C)[C@H]1O)[C@H]2C (stereo partly specified)" endpoint_result=0.50
compound="CC[C@H]1OC(=O)[C@H](C)[C@H]2OC3(CCN(c4ccc(NC(=O)c5ccccc5)cc4)CC3)O[C@](C)(C[C@@H](C)CN(C)[C@H](C)[C@@H](O)[C@]1(C)O)[C@H](O[C@@H]1O[C@H](C)CC(N(C)C)[C@H]1O)[C@H]2C (stereo partly specified)" endpoint_result=1.10

====

Tested on: Staphylococcus aureus
assay-remarks: In vitro antibacterial activity against Staphylococcus aureus 01A0758
Assay type: functional
Documented MIC across a set of molecules
endpoint-name: MIC (µg/mL)

molecule="CC[C@H]1OC(=O)[C@H](C)[C@H]2OC3(CCN(c4nccc(C(F)(F)F)n4)CC3)O[C@](C)(C[C@@H](C)CN(C)[C@H](C)[C@@H](O)[C@]1(C)O)[C@H](O[C@@H]1O[C@H](C)CC(N(C)C)[C@H]1O)[C@H]2C (stereo partly drawn)" target_under_test="Staphylococcus aureus" endpoint_result=6.25
molecule=CC[C@H]1OC(=O)[C@H](C)C2OC3(CCNCC3)O[C@](C)(C[C@@H](C)CN(C)[C@H](C)[C@@H](O)[C@]1(C)O)[C@H](O[C@@H]1O[C@H](C)C[C@H](N(C)C)[C@H]1O)[C@H]2C target_under_test="Staphylococcus aureus" endpoint_result=6.25
molecule="CC[C@H]1OC(=O)[C@H](C)[C@H]2OC3(CCN(c4ccc([N+](=O)[O-])cc4)CC3)O[C@](C)(C[C@@H](C)CN(C)[C@H](C)[C@@H](O)[C@]1(C)O)[C@H](O[C@@H]1O[C@H](C)CC(N(C)C)[C@H]1O)[C@H]2C (stereo partly drawn)" target_under_test="Staphylococcus aureus" endpoint_result=1.56
molecule="CC[C@H]1OC(=O)[C@H](C)[C@H]2OC3(CCN(c4ccc(C#N)cc4)CC3)O[C@](C)(C[C@@H](C)CN(C)[C@H](C)[C@@H](O)[C@]1(C)O)[C@H](O[C@@H]1O[C@H](C)CC(N(C)C)[C@H]1O)[C@H]2C (stereo partly drawn)" target_under_test="Staphylococcus aureus" endpoint_result=3.13
molecule="CC[C@H]1OC(=O)[C@H](C)[C@H]2OC3(CCN(c4ccc(N)cc4)CC3)O[C@](C)(C[C@@H](C)CN(C)[C@H](C)[C@@H](O)[C@]1(C)O)[C@H](O[C@@H]1O[C@H](C)CC(N(C)C)[C@H]1O)[C@H]2C (stereo partly drawn)" target_under_test="Staphylococcus aureus" endpoint_result=6.35
molecule="CC[C@H]1OC(=O)[C@H](C)[C@H]2OC3(CCN(c4ccc(S(=O)(=O)c5ccc(F)cc5)cc4)CC3)O[C@](C)(C[C@@H](C)CN(C)[C@H](C)[C@@H](O)[C@]1(C)O)[C@H](O[C@@H]1O[C@H](C)CC(N(C)C)[C@H]1O)[C@H]2C (stereo partly drawn)" target_under_test="Staphylococcus aureus" endpoint_result=3.13
molecule="CC[C@H]1OC(=O)[C@H](C)[C@H]2OC3(CCN(c4ccc(C(=O)N(C)c5ccncc5)cc4F)CC3)O[C@](C)(C[C@@H](C)CN(C)[C@H](C)[C@@H](O)[C@]1(C)O)[C@H](O[C@@H]1O[C@H](C)CC(N(C)C)[C@H]1O)[C@H]2C (stereo partly drawn)" target_under_test="Staphylococcus aureus" endpoint_result=3.13
molecule="CC[C@H]1OC(=O)[C@H](C)[C@H]2OC3(CCN(c4ccc(C(=O)O)c(C(F)(F)F)c4)CC3)O[C@](C)(C[C@@H](C)CN(C)[C@H](C)[C@@H](O)[C@]1(C)O)[C@H](O[C@@H]1O[C@H](C)CC(N(C)C)[C@H]1O)[C@H]2C (stereo partly drawn)" target_under_test="Staphylococcus aureus" endpoint_result=25
